- assayed system: NDM-1 (New Delhi metallo-β-lactamase-1) (Klebsiella pneumoniae)
- assay method text: Enzyme inhibition assay, NDM-1
- Assay type: biochemical
- condition details: read-out: pIC50 NDM-1 (converted)
Overview of recorded log10 of IC50 for various compounds
Give log10 of IC50, with IC50 taken in nM.

{"smiles notation": "COc1ccc(-c2c(C(=O)O)[nH]c3c(C)cccc23)cc1", "assayed system": "NDM-1 (New Delhi metallo-β-lactamase-1) (Klebsiella pneumoniae)", "log10 of IC50": 1.70}
{"smiles notation": "Cc1ccc2c(-c3ccc(C(N)=O)cc3)c(C(=O)O)[nH]c2c1", "assayed system": "NDM-1 (New Delhi metallo-β-lactamase-1) (Klebsiella pneumoniae)", "log10 of IC50": 2.80}
{"smiles notation": "Cc1cccc2c(-c3ccc(N4CCOCC4)cc3)c(C(=O)O)[nH]c12", "assayed system": "NDM-1 (New Delhi metallo-β-lactamase-1) (Klebsiella pneumoniae)", "log10 of IC50": 1.10}

Ask: Item Cc1c(Oc2ccccc2)ccc2c(-c3ccc(F)cc3)c(C(=O)O)[nH]c12 : provide log10 of IC50
Result: 1.20

Ask: Kindly indicate its recorded log10 of IC50. Item: Cc1cccc2c(-c3ccccc3)c(C(=O)O)[nH]c12
Result: 1.50

Ask: Please indicate log10 of IC50 recorded for CN(C)C(=O)c1ccc(-c2c(C(=O)O)[nH]c3c(C(C)(C)C)cccc23)cc1
Result: 1.73

====

- assayed system: VIM-2 (Veronese metallo-β-lactamase-2) (Escherichia coli)
- assay method text: Enzyme inhibition assay, VIM-2
- Type: biochemical
- condition details: read-out: pIC50 VIM-2 (converted)
I'd appreciate it if you marked entries YES when IC50 is lower than 300 nM and NO when it is not.

A selection of reference data follows.
{"compound": "Cc1cccc2c(-c3cnn(C)c3)c(C(=O)O)[nH]c12 [Example 26]", "assigned category": "NO"}
{"compound": "CNC(=O)c1[nH]c2c(C(C)C)cccc2c1-c1ccc(S(=O)(=O)N(C)C)cc1 [Example 122]", "assigned category": "NO"}
{"compound": "Cc1cccc2c(-c3ccc(-c4ccccc4)cc3)c(C(=O)O)[nH]c12 [Example 40]", "assigned category": "YES"}

Ask: # TODO verify IC50 < 300 nM strictly for this compound: Cc1cccc2c(-c3ccc(S(N)(=O)=O)cc3)c(C(=O)O)[nH]c12 [Example 6]
Result: NO

====

- assayed system: UniProtKB P52699
- assay method text: Enzyme inhibition assay, IMP-1
- Format: biochemical
- condition details: read-out: pIC50 IMP-1 (converted)
- Method: The biological activity of the compounds of the present invention was tested using standard assay protocols.^7 The following representative enzymes NDM-1 (New Delhi metallo-β-lactamase-1), IMP-1 (Imipenemase-1) and VIM-2 (Veronese metallo-β-lactamase-2) were selected from different clinically relevant B1 metallo-β-lactamases.
property label: IC50

{"smiles notation": "Cc1noc(C)c1-c1c(C(=O)O)[nH]c2c(C)cccc12", "assayed system": "UniProtKB P52699", "IC50": "> 100 µM"}
{"smiles notation": "CNC(=O)c1[nH]c2c(C(C)C)cccc2c1-c1ccc(S(=O)(=O)N(C)C)cc1", "assayed system": "UniProtKB P52699", "IC50": "> 20 µM"}

Now examine the next entry.
Ask: Give measured IC50 for Cc1cccc2c1cc(C(=O)O)n2-c1ccc(F)cc1 (UniProtKB P52699).
Result: > 100 µM

====

- assayed system: NDM-1 (New Delhi metallo-β-lactamase-1) (Klebsiella pneumoniae, UniProt C7C422)
- Sequence (C7C422 29-270, looked up, species assumed): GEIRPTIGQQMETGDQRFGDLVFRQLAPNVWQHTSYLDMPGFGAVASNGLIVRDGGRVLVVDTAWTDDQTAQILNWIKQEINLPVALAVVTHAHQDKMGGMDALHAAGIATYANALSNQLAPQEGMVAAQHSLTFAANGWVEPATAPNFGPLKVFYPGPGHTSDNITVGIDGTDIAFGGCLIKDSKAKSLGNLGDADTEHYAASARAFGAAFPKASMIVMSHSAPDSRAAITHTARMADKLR
- assay method text: Enzyme inhibition assay, NDM-1
- Assay type: biochemical
- condition details: read-out: pIC50 NDM-1 (converted)
The following molecules are shown together with reported IC50 values.
Write it as a number; the unit nM goes unstated.

Ask: Give measured IC50 for Cc1cccc2c(-c3ccc([N+](=O)[O-])cc3)c(C(=O)O)[nH]c12 [Example 8] (NDM-1 (New Delhi metallo-β-lactamase-1) (Klebsiella pneumoniae, UniProt C7C422)).
Result: 79.4

Ask: Give measured IC50 for Cc1cccc2c(-c3ccncc3)c(C(=O)O)[nH]c12 [Example 4] (NDM-1 (New Delhi metallo-β-lactamase-1) (Klebsiella pneumoniae, UniProt C7C422)).
Result: 63.1

Ask: # return IC50 of Cc1cccc2c(-c3ccccc3C#N)c(C(=O)O)[nH]c12 [Example 28] (system: NDM-1 (New Delhi metallo-β-lactamase-1) (Klebsiella pneumoniae, UniProt C7C422))
Result: 63.1

Ask: Identify measured IC50 obtained with NDM-1 (New Delhi metallo-β-lactamase-1) (Klebsiella pneumoniae, UniProt C7C422) for Cc1cccc2c(-c3ccc(C#N)cc3)c(C(=O)O)[nH]c12 [Example 7] .
Result: 39.8

Ask: GET IC50 | system: NDM-1 (New Delhi metallo-β-lactamase-1) (Klebsiella pneumoniae, UniProt C7C422) | item: Cc1cccc2c(-c3ccc4[nH]ncc4c3)c(C(=O)O)[nH]c12 [Example 19]
Result: 31.6

Ask: Give IC50 only, for Cc1cccc2c(-c3ccc(F)cc3)c(C(=O)NNc3ccc(S(C)(=O)=O)cc3)[nH]c12 [Example 110] , using NDM-1 (New Delhi metallo-β-lactamase-1) (Klebsiella pneumoniae, UniProt C7C422) data.
Result: 2000

Ask: Write IC50 of Cc1cc(F)cc2c(-c3ccc(F)cc3)c(C(=O)O)[nH]c12 [Example 58] ; system used: NDM-1 (New Delhi metallo-β-lactamase-1) (Klebsiella pneumoniae, UniProt C7C422)
Result: 31.6

Ask: State recorded IC50 with NDM-1 (New Delhi metallo-β-lactamase-1) (Klebsiella pneumoniae, UniProt C7C422), entry CC(C)c1cccc2c(-c3ccc(S(=O)(=O)N(C)C)cc3)c(-c3nnn[nH]3)[nH]c12 [Example 102] , no comment.
Result: 10

Ask: Report the value of IC50 obtained on NDM-1 (New Delhi metallo-β-lactamase-1) (Klebsiella pneumoniae, UniProt C7C422) for CC(C)c1cccc2c(-c3ccc(N4CCOCC4)cc3)c(C(=O)O)[nH]c12 [Example 70] .
Result: 2.51

====

- assayed system: IMP-1 (Imipenemase-1) (Serratia marcescens)
- Sequence (P52699 19-246, looked up, species assumed): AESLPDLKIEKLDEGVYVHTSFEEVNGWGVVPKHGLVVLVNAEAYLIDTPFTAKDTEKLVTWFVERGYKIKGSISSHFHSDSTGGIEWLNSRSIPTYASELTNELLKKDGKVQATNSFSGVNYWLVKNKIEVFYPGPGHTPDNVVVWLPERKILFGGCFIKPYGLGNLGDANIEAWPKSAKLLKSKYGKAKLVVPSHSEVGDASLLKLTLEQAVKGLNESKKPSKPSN
- assay method text: Enzyme inhibition assay, IMP-1
- Format: biochemical
- condition details: read-out: pIC50 IMP-1 (converted)
- Experimental: The biological activity of the compounds of the present invention was tested using standard assay protocols.^7 The following representative enzymes NDM-1 (New Delhi metallo-β-lactamase-1), IMP-1 (Imipenemase-1) and VIM-2 (Veronese metallo-β-lactamase-2) were selected from different clinically relevant B1 metallo-β-lactamases.
Measured IC50 accompanies every entry in the list below.
Respond numerically; units are µM and should not be typed.

{"smiles notation": "CC(C)c1cccc2c(-c3ccc(C(=O)O)cc3)c(C(=O)O)[nH]c12", "property label": "IC50", "measured": 0.0447}

Ask: For CC(C)c1cccc2c(-c3ccc(Cn4cnnn4)cc3)c(C(=O)O)[nH]c12 , write its IC50.
Result: 0.0224

Ask: Entry Cc1cccc2c(-c3ccc(C#N)cc3)c(C(=O)O)[nH]c12 needs its IC50 filled in; supply it.
Result: 7.94

Ask: Quote IC50 reported for Cc1cccc2c(-c3ccc(Cl)c(C(F)(F)F)c3)c(C(=O)O)[nH]c12 please.
Result: 12.6

Ask: Dear colleague, please send me the reported IC50 for CC(C)c1cccc2c(-c3ccc(C(N)=O)cc3)c(C(=O)O)[nH]c12 when you can.
Result: 0.0126

====

- assayed system: NDM-1 (New Delhi metallo-β-lactamase-1) (Klebsiella pneumoniae, UniProt C7C422)
- assay method text: Enzyme inhibition assay, NDM-1
- Type: biochemical
- condition details: read-out: pIC50 NDM-1 (converted)
- Protocol: The biological activity of the compounds of the present invention was tested using standard assay protocols.^7 The following representative enzymes NDM-1 (New Delhi metallo-β-lactamase-1), IMP-1 (Imipenemase-1) and VIM-2 (Veronese metallo-β-lactamase-2) were selected from different clinically relevant B1 metallo-β-lactamases.
Listed compounds paired with reported IC50
Kindly answer with a numeric value in nM, unit omitted.

Known results for compounds:
{"compound": "Cc1cccc2c(-c3cc(Cl)cc(Cl)c3)c(C(=O)O)[nH]c12 [Example 3]", "units of measure": "nM", "IC50": 39.8}
{"compound": "Cc1cccc2c(-c3ccc(Cn4cncn4)cc3)c(C(=O)O)[nH]c12 [Example 33]", "units of measure": "nM", "IC50": 5.01}
{"compound": "COc1cccc(-c2c(C(=O)O)[nH]c3c(C(C)C)cccc23)c1OC [Example 77]", "units of measure": "nM", "IC50": 200}
{"compound": "CC(=O)NCc1ccc(-c2c(C(=O)O)[nH]c3c(C(C)C)cccc23)cc1 [Example 90]", "units of measure": "nM", "IC50": 12.6}
{"compound": "CC(C)c1cccc2c(-c3ccncc3)c(C(=O)O)[nH]c12 [Example 68]", "units of measure": "nM", "IC50": 6.31}

Ask: Please list IC50 recorded for the compound CC(C)c1cccc2c(-c3ccccc3)c(C(=O)O)[nH]c12 [Example 66]
Result: 5.01

Ask: Recall and state the measured IC50 for Cc1cccc2c(-c3cccc(S(C)(=O)=O)c3)c(C(=O)O)[nH]c12 [Example 16] .
Result: 50.1

Value source: patent US11439622B2
